# study target: UniProtKB P07650
pKi: −log10 of the molar value.
value type: pKi

* COC(=O)C1=C(C)NC(=O)NC1c1ccc([N+](=O)[O-])cc1 (stereo not drawn) | 3.53
* COC(=O)C1=C(C)NC(=O)NC1c1ccc(C(F)(F)F)cc1 (stereo not drawn) | 3.51
* COC(=O)C1=C(C)NC(=O)NC1c1ccccc1 (stereo not drawn) | 3.49

###

# study target: Thymidine phosphorylase (TP) (Escherichia coli, UniProt P07650)
# Construct: purchased Sigma Aldrich, USA
# Sequence (P07650 whole entry): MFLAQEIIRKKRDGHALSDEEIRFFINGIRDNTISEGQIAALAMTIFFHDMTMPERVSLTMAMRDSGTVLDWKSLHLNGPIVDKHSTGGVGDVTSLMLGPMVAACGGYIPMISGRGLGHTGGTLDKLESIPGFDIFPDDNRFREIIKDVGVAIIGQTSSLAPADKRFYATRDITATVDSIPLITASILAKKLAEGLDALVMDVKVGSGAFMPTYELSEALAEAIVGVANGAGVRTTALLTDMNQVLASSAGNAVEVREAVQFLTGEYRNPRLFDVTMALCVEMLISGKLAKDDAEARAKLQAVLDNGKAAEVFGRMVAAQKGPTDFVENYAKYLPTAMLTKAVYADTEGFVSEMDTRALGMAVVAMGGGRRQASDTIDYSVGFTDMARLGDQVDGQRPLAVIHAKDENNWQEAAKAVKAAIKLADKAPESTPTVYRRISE
# test method notes: Thymidine phosphorylase inhibition assay (spectrophotometric, 290 nm)
# Assay type: biochemical, E. coli
# measurement parameters: pH 7, E. coli TP; test compound 10 µL of 0.5 mM in 200 µL; thymidine substrate; 30 °C, pH 7.0; read-out: Thymidine Phosphorylase Inhibitory Activity % Inhibition
// values below are reported inhibition at 500 µM
value type: inhibition at 500 µM (%)

- COC(=O)C1=C(C)NC(=O)NC1c1ccc(OC)c(OC)c1 (centres unmarked): 59
- COC(=O)C1=C(C)NC(=O)NC1c1ccccc1OCc1ccccc1 (centres unmarked): 5.3
- O=c1[nH]c(=O)c2cc[nH]c2[nH]1 [7-Deazaxanthine, reference compound]: 82
- COC(=O)C1=C(C)NC(=O)NC1c1ccccc1 (centres unmarked): 84
- COC(=O)C1=C(C)NC(=O)NC1c1cccc(O)c1 (centres unmarked): 38.9

###

Record: pIC50 reported on UniProt P07650.
pIC50: −log10 of the molar value.
value type: pIC50

* COC(=O)C1=C(C)NC(=O)NC1c1ccc(OC)cc1 (stereo not drawn) | 3.41
* COC(=O)C1=C(C)NC(=O)NC1c1ccco1 (stereo not drawn) | 3.43
* COC(=O)C1=C(C)NC(=O)NC1c1ccc(O)cc1 (stereo not drawn) | 3.35
* COC(=O)C1=C(C)NC(=O)NC1c1ccsc1 (stereo not drawn) | 3.46
* CCCCC1NC(=O)NC(C)=C1C(=O)OC (stereo not drawn) | 3.41
* COC(=O)C1=C(C)NC(=O)NC1c1ccc(OC(C)=O)c(OC)c1 (stereo not drawn) | 3.40

###

# test method notes: MTT cytotoxicity assay
# Format: cell-based
# measurement parameters: 3T3 mouse fibroblast cells, 48 h, test compounds 1 to 30 µM, NC: non-cytotoxic, read-out: Cytotoxicity Studies Cell Viability (%)
# Procedure: Cytotoxicity of active compounds were evaluated employing a standard MTT calorimetric assay. Mouse fibroblast (3T3 cell line) acquired from American Type Culture Collection (ATCC), Virginia, USA, was cultured in DMEM (Dulbecco’s modified eagle medium). […] Haemocytometer was used for the quantification of cells. […] The reduction of MTT to formazan was measured by recording absorbance at 540 nm with the help of a microplate reader (SpectraMax 384, Molecular Devices, San Jose, CA, USA).
value type: viability at 48 h (%)

- COC(=O)C1=C(C)NC(=O)NC1c1ccc(OC)cc1F (centres unmarked) [Compound 14]: 71
- COC(=O)C1=C(C)NC(=O)NC1c1cccc(OC)c1OC (centres unmarked) [Compound 20]: 62
- COC(=O)C1=C(C)NC(=O)NC1c1ccc(OC(C)=O)c(OC)c1 (centres unmarked) [Compound 29]: 80
- C[C@@H]1C[C@@H]([C@H](O)CC2CC(=O)NC(=O)C2)C(=O)[C@@H](C)C1 [Cycloheximide, reference compound]: 30
- CCCCC1NC(=O)NC(C)=C1C(=O)OC (centres unmarked) [Compound 10]: 66
